Target: Kv7.2/3 K+ channels (M-channels) (Homo sapiens, UniProt O43525+O43526)
Construct: expressed in transfected cells; host or cells: CHO cells
Sequence (O43526 whole entry): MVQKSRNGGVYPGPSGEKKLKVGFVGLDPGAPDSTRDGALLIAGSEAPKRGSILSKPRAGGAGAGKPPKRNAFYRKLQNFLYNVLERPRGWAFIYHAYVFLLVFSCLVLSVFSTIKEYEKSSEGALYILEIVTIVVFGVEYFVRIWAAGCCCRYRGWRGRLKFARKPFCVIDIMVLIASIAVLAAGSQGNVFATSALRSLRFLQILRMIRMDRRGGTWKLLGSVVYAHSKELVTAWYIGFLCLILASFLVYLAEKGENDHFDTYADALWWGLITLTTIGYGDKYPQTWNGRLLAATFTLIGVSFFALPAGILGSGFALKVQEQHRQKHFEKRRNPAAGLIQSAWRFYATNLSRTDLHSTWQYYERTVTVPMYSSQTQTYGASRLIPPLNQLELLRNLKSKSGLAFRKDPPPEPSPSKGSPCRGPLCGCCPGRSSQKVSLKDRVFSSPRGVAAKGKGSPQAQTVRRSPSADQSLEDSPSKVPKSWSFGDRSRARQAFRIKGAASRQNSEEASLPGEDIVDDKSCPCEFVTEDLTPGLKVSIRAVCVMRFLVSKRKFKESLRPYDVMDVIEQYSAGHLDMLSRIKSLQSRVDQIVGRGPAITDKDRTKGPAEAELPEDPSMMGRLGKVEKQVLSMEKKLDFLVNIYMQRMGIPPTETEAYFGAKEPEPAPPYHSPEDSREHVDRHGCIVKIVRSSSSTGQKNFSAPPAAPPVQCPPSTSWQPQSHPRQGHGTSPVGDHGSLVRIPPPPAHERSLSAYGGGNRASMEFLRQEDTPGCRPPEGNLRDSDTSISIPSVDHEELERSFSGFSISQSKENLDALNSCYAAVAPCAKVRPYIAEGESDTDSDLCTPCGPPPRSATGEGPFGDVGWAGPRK
Sequence (O43525 whole entry): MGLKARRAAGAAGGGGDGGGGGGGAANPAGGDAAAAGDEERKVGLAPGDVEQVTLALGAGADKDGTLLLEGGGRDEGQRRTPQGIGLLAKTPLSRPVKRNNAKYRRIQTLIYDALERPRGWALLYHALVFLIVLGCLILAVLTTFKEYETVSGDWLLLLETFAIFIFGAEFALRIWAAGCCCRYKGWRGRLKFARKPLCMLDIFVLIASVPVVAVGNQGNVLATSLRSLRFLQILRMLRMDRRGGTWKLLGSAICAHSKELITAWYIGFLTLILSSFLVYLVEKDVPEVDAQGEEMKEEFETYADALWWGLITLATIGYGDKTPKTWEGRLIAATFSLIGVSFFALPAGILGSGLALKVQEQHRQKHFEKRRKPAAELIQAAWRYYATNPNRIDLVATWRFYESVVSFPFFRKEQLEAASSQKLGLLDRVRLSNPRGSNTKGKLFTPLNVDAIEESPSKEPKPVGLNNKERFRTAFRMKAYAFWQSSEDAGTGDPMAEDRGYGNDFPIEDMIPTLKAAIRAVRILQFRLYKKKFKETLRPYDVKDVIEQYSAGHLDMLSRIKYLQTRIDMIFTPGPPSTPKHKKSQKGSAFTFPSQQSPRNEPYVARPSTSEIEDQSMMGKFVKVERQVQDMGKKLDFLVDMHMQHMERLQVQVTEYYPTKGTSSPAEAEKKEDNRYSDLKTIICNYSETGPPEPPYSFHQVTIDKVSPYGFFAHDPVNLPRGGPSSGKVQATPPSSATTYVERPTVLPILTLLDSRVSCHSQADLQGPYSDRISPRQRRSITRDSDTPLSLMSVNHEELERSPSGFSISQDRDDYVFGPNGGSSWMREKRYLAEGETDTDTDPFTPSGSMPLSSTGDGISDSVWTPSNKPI
Assay: Whole-cell patch-clamp of recombinant Kv7.2/3 channels in CHO cells
Type: cell-based
Settings: Kv7.2 and Kv7.3 coexpressed in CHO cells
assayReadout: M-channels (Kv7.2/Kv7.3) effect (opener / blocker / inactive)

Check out these entries, answers already filled in.
O=C(O)Cc1ccccc1Nc1c(Cl)cccc1Cl [Diclofenac, reference compound]	opener
COc1ccc2cc([C@H](C)C(=O)O)ccc2c1 [naproxen, reference compound]	do not activate
O=C(Cc1cc([N+](=O)[O-])ccc1Nc1c(Cl)cccc1Cl)OCCO	opener
Cc1cccc(Nc2ccccc2C(=O)O)c1C [mefenamate, reference compound]	openers
Cc1ccc(Cl)c(Nc2ccccc2C(=O)O)c1Cl [Meclofenamic acid, reference compound]	opener

Entry O=C(O)c1ccccc1Nc1cccc(C(F)(F)F)c1 [flufenamate, reference compound] has what M-channels (Kv7.2/Kv7.3) effect (opener / blocker / inactive)?
openers

Need M-channels (Kv7.2/Kv7.3) effect (opener / blocker / inactive) of O=C(Cc1cc([N+](=O)[O-])ccc1Nc1c(Cl)cccc1Cl)NCCO , thanks.
opener

What does the record list as M-channels (Kv7.2/Kv7.3) effect (opener / blocker / inactive) for CC(C(=O)O)c1ccc(-c2ccccc2)c(F)c1 (stereo not drawn) [flurbiprofen, reference compound] ?
do not activate

For CC(C(=O)O)c1cccc(Oc2ccccc2)c1 (stereo not drawn) [fenoprofen, reference compound] , what is its reported M-channels (Kv7.2/Kv7.3) effect (opener / blocker / inactive)?
do not activate

Entry source: paper PMC2131780
